Entry source: patent US10787430B2

- experiment.description: Solubility in JP1, JP2 and FaSSIF buffers
- Format: physicochemical
- test.context: 25 °C, thermodynamic from solid; FaSSIF buffer pH 6.5, 24 hr, room temperature; read-out: FaSSIF Solubility
Where a name gives a salt, the structure may show the parent alone.
Readings of solubility at 24 h for the listed molecules
Kindly answer with a numeric value in µg/mL, unit omitted.

See these solved cases before continuing.
Answer with the recorded solubility at 24 h for the molecule listed here: CC(C)n1nccc1-c1ncccc1COc1cccc(O)c1C=O [GBT-440 (HCl salt), reference compound]
95.7

Answer with the recorded solubility at 24 h for the molecule listed here: [2H]C([2H])(Oc1cccc(O)c1C=O)c1cncnc1-c1ccnn1C(C)C [Example 38]
26.6

Answer with the recorded solubility at 24 h for the molecule listed here: Cl.[2H]C([2H])(Oc1cccc(O)c1C=O)c1cccnc1-n1ccnc1C(C)C [Example 29]
591

---
Answer with the recorded solubility at 24 h for the molecule listed here: Cl.[2H]C([2H])(Oc1cc(F)cc(O)c1C=O)c1cccnc1-c1ccnn1C(C)C [Example 27]
35.7
